Origin of measurements: paper PMC6683251

- method: Urinary excretion of flavanol metabolites (0-24 h) after a single serving of soluble cocoa product (HPLC-ESI-QToF-MS)
- Assay type: in vivo, human
- condition-description: after CC (19.80 mg flavanols), mean ± SD, n = 13
readout-name: Excreted in urine, 8–12 h (µmol)
Give a bare numeral; the unit µmol is implied.

Entry O=C(O)Cc1ccc(O)c(O)c1 [3,4-Dihydroxyphenylacetic acid] , Excreted in urine, 8–12 h reported as 0.094

The molecule listed as O=C(O)CCc1ccc(O)cc1 [Hydroxyphenylpropionic acid] shows Excreted in urine, 8–12 h equal to 0.077

###

- method: Urinary excretion of flavanol metabolites (0-24 h) after a single serving of soluble cocoa product (HPLC-ESI-QToF-MS)
- Assay type: in vivo, human
- condition-description: after CC-PP (68.25 mg flavanols), mean ± SD, n = 13
readout-name: Excreted in urine, 12–24 h (µmol)
Give just the numeric value; µmol need not be written.

COc1ccc(/C=C/C(=O)O)cc1O [Isoferulic acid]: 0.210

Consider O=C1CCC(Cc2cccc(OS(=O)(=O)O)c2)O1 (centres unmarked) [PVL-3′-sulfate, 5-Phenyl-γ-valerolactone-3′-sulfate] . Its measured Excreted in urine, 12–24 h is 1.690

The recorded Excreted in urine, 12–24 h for O=C1CCC(Cc2ccc(O)c(O)c2)O1 (centres unmarked) [DHPVL] is 0.282
